Tested on: KSHV-infected DMVEC
procedure summary: PMO antisense inhibition of KSHV-induced spindle cell and foci formation (Example 3)
Assay type: cell-based, human
experimental parameters: PMO antisense, KSHV-infected DMVEC; c-Kit: 1.25 nmol PMO + 2.5 μl EPEI per 35 mm dish
measure name: KSHV-induced spindle cell / foci formation (in words)

In: Name the recorded KSHV-induced spindle cell / foci formation (in words) of the substance listed here: IFACTOR: PMO antisense to IFACTOR, AGCTTCATGTTGGAGGTGTTCG (SEQ ID NO:22) (all phosphorodiamidate morpholino (PMO); delivered paired with partially complementary DNA oligo (Special Delivery))
Out: little or no affect

In: Name the recorded KSHV-induced spindle cell / foci formation (in words) of the substance listed here: LMO2: PMO antisense to LMO2, GCCGAGGACATTGGGGAGGGAGGCG (SEQ ID NO:23) (all phosphorodiamidate morpholino (PMO); delivered paired with partially complementary DNA oligo (Special Delivery, EPEI))
Out: little or no affect
